Target: T1, cynoSIRPα (NP_001271679), Extracellular Domain + His-Tag (cynomolgus monkey)
T1 construct: also called CySIRPα NP_001271679; not shown: His-Tag
T1 chain: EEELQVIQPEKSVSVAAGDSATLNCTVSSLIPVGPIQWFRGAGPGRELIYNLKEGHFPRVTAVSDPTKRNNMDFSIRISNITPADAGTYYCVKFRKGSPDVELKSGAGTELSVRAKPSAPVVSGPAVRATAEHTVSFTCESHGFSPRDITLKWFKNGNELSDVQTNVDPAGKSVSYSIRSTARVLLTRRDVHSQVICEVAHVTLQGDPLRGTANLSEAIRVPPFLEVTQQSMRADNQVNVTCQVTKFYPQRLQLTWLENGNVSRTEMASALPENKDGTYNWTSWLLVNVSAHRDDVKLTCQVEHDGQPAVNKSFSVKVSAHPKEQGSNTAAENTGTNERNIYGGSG
Test: SPR, antibody captured on Protein A/G, ECD-His analyte, steady-state fit
Would you mind telling me the reported pKd of each entry?
Numbers only, as −log10 of the molar value.

binder	pKd
Antibody A16 (antibody, human IgG1, kappa, L234A L235A, V domains shown) VH: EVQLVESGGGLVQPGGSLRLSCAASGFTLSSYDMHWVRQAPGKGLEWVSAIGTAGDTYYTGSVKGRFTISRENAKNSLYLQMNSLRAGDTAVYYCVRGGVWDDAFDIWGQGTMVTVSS VL: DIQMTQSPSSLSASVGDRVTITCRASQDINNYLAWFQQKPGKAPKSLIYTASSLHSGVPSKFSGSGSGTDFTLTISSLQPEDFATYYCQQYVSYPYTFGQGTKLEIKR	6.51
Antibody A15 (antibody, human IgG1, kappa, L234A L235A, V domains shown) VH: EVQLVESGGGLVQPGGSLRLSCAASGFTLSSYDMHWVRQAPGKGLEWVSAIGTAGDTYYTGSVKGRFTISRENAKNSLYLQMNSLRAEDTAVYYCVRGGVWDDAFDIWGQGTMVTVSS VL: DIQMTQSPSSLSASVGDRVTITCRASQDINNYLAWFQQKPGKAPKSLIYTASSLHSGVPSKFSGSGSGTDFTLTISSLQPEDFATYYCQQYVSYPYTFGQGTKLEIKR	6.50

Field: next binder
Answer with the recorded pKd for the binder listed here: Antibody A1 (antibody, human IgG1, kappa, L234A L235A, V domains shown) VH: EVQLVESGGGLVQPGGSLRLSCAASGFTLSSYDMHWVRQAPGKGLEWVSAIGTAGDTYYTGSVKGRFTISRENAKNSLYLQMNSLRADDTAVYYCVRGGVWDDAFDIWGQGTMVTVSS VL: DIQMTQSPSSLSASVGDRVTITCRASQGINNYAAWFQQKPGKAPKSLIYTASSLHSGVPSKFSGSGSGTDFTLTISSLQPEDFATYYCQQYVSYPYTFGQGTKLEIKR 6.11
